Entry source: paper PMC11784839

- Subject of test: tau (Homo sapiens)
- Sequence (P10636 623-695 limits assumed): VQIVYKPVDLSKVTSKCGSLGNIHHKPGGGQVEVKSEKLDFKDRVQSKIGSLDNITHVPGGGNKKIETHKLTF
- Assay name: MCE Phenols Library screening, tau biosensor cell seeding assay (AvZ)
- Format: cell-based
- Measurement context: Z score, replicate 1
Measured attribute: Z repl 1
Response field accepts a number only; no unit should be typed.

- O=C(O)c1cc(O)c(O)c(O)c1: -2.072
- COc1c(O)cc2occ(-c3ccc(O)cc3)c(=O)c2c1O: -0.071
- CC(C)c1ccc2c(c1O)CC[C@H]1C3=C(CC[C@]21C)C(=O)OC3 [Triptophenolide]: 0.422

Q) Name the recorded Z repl 1 of the item COc1cc(O)c2c(=O)c(O)c(-c3ccc(O)c(O)c3)oc2c1 in your answer.
A) -0.386

Q) Quote Z repl 1 reported for O=C(OC[C@H]1OC(OC(=O)c2cc(O)c(O)c(O)c2)[C@H](OC(=O)c2cc(O)c(O)c(O)c2)[C@@H](OC(=O)c2cc(O)c(O)c(O)c2)[C@@H]1O)c1cc(O)c(O)c(O)c1 (stereo partly shown) please.
A) -1.751

Q) Annotate the compound O=C(O)CC(=O)OC[C@H]1O[C@@H](Oc2c(-c3ccc(O)c(O)c3)oc3cc(O)cc(O)c3c2=O)[C@H](O)[C@@H](O)[C@@H]1O with its measured Z repl 1.
A) -0.599

Q) Please report Z repl 1 for the following compound: Cc1cc(=O)oc2c(O)c(O)ccc12
A) -1.037

Q) Annotate the compound COc1cc2c(=O)c3c(O)c([C@@H]4O[C@H](CO[C@@H]5OC[C@](O)(CO)[C@H]5O)[C@@H](O)[C@H](O)[C@H]4O)c(O)cc3oc2cc1O with its measured Z repl 1.
A) -0.439
